Cited source for all entries: ChEMBL document CHEMBL1134243

- Experiment summary: Lethal dose at a concentration of 0.163 mmol/kg in mice administered intraperitoneally
- Type: toxicity, organism-based
- Condition label: mouse, in vivo, ip
Measured property: LD50 (mg/kg)
Write the number in mg/kg without appending the unit.

stdin: Which measured LD50 value corresponds to O=C(O)CCCc1ccc(N(CCCl)CCCl)cc1 [CHLORAMBUCIL] ?
stdout: 49.6

###

- Experiment summary: Lethal dose at a concentration of 0.225 mmol/kg in mice administered intraperitoneally
- Format: toxicity, organism-based
- Condition label: mouse, in vivo, ip
Measured property: LD50

stdin: Which measured LD50 value corresponds to "Nc1ccc(S(=O)(=O)N(CCOC(=O)CCCc2ccc(N(CCCl)CCCl)cc2)c2ncccn2)cc1" ?
stdout: 131 mg/kg
